Compiled from multiple publications: pKi readings for Retinoic acid receptor alpha (Homo sapiens, UniProt P10276).
pKi: −log10 of the molar value.
Endpoint: pKi

molecule=C/C(=C\C(=O)O)c1cc2c(-c3cc(C(C)(C)C)cc(C(C)(C)C)c3OCCCF)cccc2s1 relation== readout_value=5.14
molecule=CCCOc1c(-c2cccc3cc(/C(C)=C/C(=O)O)oc23)cc(C(C)C)cc1C(C)C relation== readout_value=5.07
molecule=CCCOc1cc2c(cc1\C(C)=C/C=C/C(C)=C/C(=O)O)C(C)(C)CCC2(C)C relation== readout_value=5.75
molecule="Cc1cc2c(cc1C1CCCc3oc(/C=C/C(=O)O)cc31)C(C)(C)CCC2(C)C (configuration not stated)" relation=< readout_value=6.00
molecule="CC1=C(/C=C/C(C)=C/C=C/C(C)=C/C(=O)Nc2ccc(CC3OC(C(=O)O)C(O)C(O)C3O)cc2)C(C)(C)CCC1 (configuration not stated)" relation=< readout_value=5.66
molecule=COc1ccc(/C(C)=C/c2ccc(C(=O)O)cc2)cc1C12CC3CC(CC(C3)C1)C2 relation== readout_value=6.34
molecule=CCCOc1c(-c2cccc3sc(/C(C)=C/C(=O)O)cc23)cc(C(C)C)cc1C(C)C relation== readout_value=5.16
molecule="O=C(O)c1ccc2cc(-c3ccc(CC(O)CO)c(C45CC6CC(CC(C6)C4)C5)c3)ccc2c1 (configuration not stated)" relation=< readout_value=5.00
molecule=O=C(O)c1ccc2cc(-c3ccc(CCCO)c(C45CC6CC(CC(C6)C4)C5)c3)ccc2c1 relation== readout_value=6.16
molecule="CC(/C=C/C1CC1/C=C/C1=CC(C)(C)CCC1(C)C)=C\\C(=O)O (configuration not stated)" relation== readout_value=8.51
molecule=C/C(=C\c1ccc(C(=O)O)cc1)c1ccc(O)c(C(C)(C)C)c1 relation== readout_value=6.08
molecule=CC(C)(C)c1cc(C2=Cc3ccc(C(=O)O)cc3OC2)ccc1O relation=< readout_value=5.52
molecule=CC(/C=C/C1(c2ccc3c(c2)C(C)(C)CCC3(C)C)CCCC1)=C\C(=O)O relation=< readout_value=6.00
molecule="CC1(C)CCC(C)(C)c2cc(C3CCCc4oc(/C=C/C(=O)O)nc43)ccc21 (configuration not stated)" relation=< readout_value=6.00
molecule="CC(/C=C/C=C(\\C)c1cc(C(C)(C)C)cc(C(C)(C)C)c1)=C\\C(=O)O (stereo in doubt; form 2)" relation== readout_value=8.96
molecule="CC1(C)CCC(C)(C)c2cc(C3CCCc4oc(C(=O)O)cc43)ccc21 (configuration not stated)" relation=< readout_value=6.00
molecule=COc1ccc(-c2ccc3cc(C(=O)O)ccc3c2)cc1C12CC3CC(CC(C3)C1)C2 relation== readout_value=5.96
molecule=C/C(=C\C(=O)O)c1cc2c(-c3cc(C(C)(C)C)cc(C(C)(C)C)c3OCC(F)(F)F)cccc2s1 relation=< readout_value=5.00
molecule=CC(/C=C/C1(c2ccc3c(c2)C(C)(C)CCC3(C)C)CC1)=C\C(=O)O relation=< readout_value=6.00
molecule=CC(/C=C/[C@H]1CCC[C@@H]1c1ccc2c(c1)C(C)(C)CCC2(C)C)=C\C(=O)O relation=< readout_value=6.00
molecule=O=C(O)c1ccc(/C=C/c2ccc(O)c(C34CC5CC(CC(C5)C3)C4)c2)cc1 relation== readout_value=6.21
molecule=O=C(O)c1ccc2cc(-c3ccc(CO)c(C45CC6CC(CC(C6)C4)C5)c3)ccc2c1 relation=< readout_value=5.00
molecule=CCOc1c(-c2cccc3sc(/C(C)=C/C(=O)O)cc23)cc(C(C)C)cc1C(C)C relation=< readout_value=5.00
molecule=O=C(O)c1ccc2cc(-c3ccc(O)c(C45CC6CC(CC(C6)C4)C5)c3)ccc2c1 relation== readout_value=5.19
molecule=C/C(=C\c1ccc(C(=O)O)cc1)c1ccc(O)c(C2(C)CCCCC2)c1 relation== readout_value=5.98
molecule=CC1(C)CCC(C)(C)c2cc(C3=Cc4ccc(C(=O)O)cc4OC3)ccc21 relation== readout_value=6.31
molecule="O=C(O)c1ccc2cc(-c3ccc(OCC(O)CO)c(C45CC6CC(CC(C6)C4)C5)c3)ccc2c1 (configuration not stated)" relation== readout_value=5.30
molecule="CC1(C)CCC(C)(C)c2cc(C3COc4cc(C(=O)O)ccc4C3)ccc21 (configuration not stated)" relation== readout_value=5.24
molecule=CC(/C=C/C1(c2cc3c(cc2C)C(C)(C)CCC3(C)C)CC1)=C\C(=O)O relation=< readout_value=6.00
molecule=C/C(=C\C(=O)O)c1cc2cccc(-c3cc(C(C)C)cc(C(C)C)c3OCCCF)c2o1 relation=< readout_value=5.00
molecule=Cc1oc(/C=C/C(=O)O)cc1Cc1ccc2c(c1)C(C)(C)CCC2(C)C relation=< readout_value=6.00
molecule=CC1(c2cc(-c3ccc4cc(C(=O)O)ccc4c3)ccc2O)CCCCC1 relation=< readout_value=5.00
molecule=COc1cc2c(cc1\C(C)=C/C=C/C(C)=C/C(=O)O)C(C)(C)CCC2(C)C relation== readout_value=6.51
molecule=CCCCCCOc1ccc(-c2ccc3cc(C(=O)O)ccc3c2)cc1C12CC3CC(CC(C3)C1)C2 relation=< readout_value=5.00
molecule="CC(=CC(=O)O)c1cc2c(o1)CCCC2c1ccc2c(c1)C(C)(C)CCC2(C)C (configuration not stated)" relation=< readout_value=6.00
molecule=CC(/C=C/[C@]12CCC[C@@]1(c1ccc3c(c1)C(C)(C)CCC3(C)C)C2)=C\C(=O)O relation=< readout_value=6.00
molecule=CC(/C=C/C1(c2cc3c(cc2C)C(C)(C)CCC3(C)C)CCCC1)=C\C(=O)O relation=< readout_value=6.00
